assay: Plasma levels of Compound 1 over 24 hours after 14 days of suspension administration in healthy volunteers; type: in vivo; conditions: human, oral, 25 mg BID suspension, 8.5 h post-dose
measured.property: concentration at 8.5 h
Record the result as number plus unit.

Req: Recorded concentration at 8.5 h of NC(=O)N1CCC[C@@H](N(C(=O)NCc2ccc(OC(F)(F)F)cc2F)C2CC2)C1 , please.
Resp: 894 ng/mL

* * *

assay: Plasma levels of Compound 1 over 24 hours after 14 days of suspension administration in healthy volunteers; format: in vivo; conditions: human, oral, 25 mg BID suspension, 1.5 h post-dose
measured.property: concentration at 1.5 h (µg/mL)
Express your answer in µg/mL, writing the number without its unit.

Req: Recorded concentration at 1.5 h of NC(=O)N1CCC[C@@H](N(C(=O)NCc2ccc(OC(F)(F)F)cc2F)C2CC2)C1 , please.
Resp: 1

* * *

assay: Plasma levels of Compound 1 over 72 h, suspension versus tablet, fasted or fed, in healthy volunteers; assay type: in vivo; conditions: human, oral, 100 mg, 100 mg tablet, fed, 2 h post-dose, read-out: Plasma level, Mean
measured.property: concentration at 2 h (ng/mL)
Express your answer in ng/mL, writing the number without its unit.

Req: Recorded concentration at 2 h of NC(=O)N1CCC[C@@H](N(C(=O)NCc2ccc(OC(F)(F)F)cc2F)C2CC2)C1 [Cpd 1] , please.
Resp: 2850

* * *

assay: Plasma levels of Compound 1 over 72 h, suspension versus tablet, fasted or fed, in healthy volunteers; assay type: in vivo; conditions: human, oral, 100 mg, 100 mg tablet, fed, 12 h post-dose, read-out: Plasma level, Mean
measured.property: concentration at 12 h (ng/mL)
Express your answer in ng/mL, writing the number without its unit.

Req: Recorded concentration at 12 h of NC(=O)N1CCC[C@@H](N(C(=O)NCc2ccc(OC(F)(F)F)cc2F)C2CC2)C1 , please.
Resp: 963

* * *

test: Plasma levels of Compound 1 over 24 hours after 14 days of suspension administration in healthy volunteers; assay type: in vivo; conditions: human, oral, 25 mg BID suspension, 9.5 h post-dose
measured.property: concentration at 9.5 h (ng/mL)
Express your answer in ng/mL, writing the number without its unit.

Req: Recorded concentration at 9.5 h of NC(=O)N1CCC[C@@H](N(C(=O)NCc2ccc(OC(F)(F)F)cc2F)C2CC2)C1 , please.
Resp: 1010

* * *

test: Plasma levels of Compound 1 over 72 h, suspension versus tablet, fasted or fed, in healthy volunteers; format: in vivo; settings: human, oral, 100 mg, 100 mg tablet, fasted, 3 h post-dose, read-out: Plasma level, Mean
measured.property: concentration at 3 h (ng/mL)
Express your answer in ng/mL, writing the number without its unit.

Req: Recorded concentration at 3 h of NC(=O)N1CCC[C@@H](N(C(=O)NCc2ccc(OC(F)(F)F)cc2F)C2CC2)C1 , please.
Resp: 2580

* * *

assay: Plasma levels of Compound 1 over 24 hours after 14 days of suspension administration in healthy volunteers; assay type: in vivo; details: human, oral, 75 mg BID suspension, 0.5 h post-dose
measured.property: concentration at 0.5 h (ng/mL)
Express your answer in ng/mL, writing the number without its unit.

Req: Recorded concentration at 0.5 h of NC(=O)N1CCC[C@@H](N(C(=O)NCc2ccc(OC(F)(F)F)cc2F)C2CC2)C1 , please.
Resp: 3350

* * *

assay: Plasma levels of Compound 1 over 72 h, suspension versus tablet, fasted or fed, in healthy volunteers; format: in vivo; conditions: human, oral, 100 mg, 100 mg tablet, fed, 72 h post-dose, read-out: Plasma level, Mean
measured.property: concentration at 72 h (ng/mL)
Express your answer in ng/mL, writing the number without its unit.

Req: Recorded concentration at 72 h of NC(=O)N1CCC[C@@H](N(C(=O)NCc2ccc(OC(F)(F)F)cc2F)C2CC2)C1 [Cpd 1] , please.
Resp: 15

* * *

assay: Plasma levels of Compound 1 over 72 h, suspension versus tablet, fasted or fed, in healthy volunteers; format: in vivo; details: human, oral, 100 mg, 100 mg suspension, fasted, 0.5 h post-dose, read-out: Plasma level, Mean
measured.property: concentration at 0.5 h (ng/mL)
Express your answer in ng/mL, writing the number without its unit.

Req: Recorded concentration at 0.5 h of NC(=O)N1CCC[C@@H](N(C(=O)NCc2ccc(OC(F)(F)F)cc2F)C2CC2)C1 , please.
Resp: 1840

* * *

assay: Plasma levels of Compound 1 over 24 hours after 14 days of suspension administration in healthy volunteers; format: in vivo; conditions: human, oral, 25 mg BID suspension, 2.5 h post-dose
measured.property: concentration at 2.5 h (ng/mL)
Express your answer in ng/mL, writing the number without its unit.

Req: Recorded concentration at 2.5 h of NC(=O)N1CCC[C@@H](N(C(=O)NCc2ccc(OC(F)(F)F)cc2F)C2CC2)C1 , please.
Resp: 899

* * *

experiment: Plasma levels of Compound 1 over 24 hours after 14 days of suspension administration in healthy volunteers; format: in vivo; conditions: human, oral, 25 mg BID suspension, 10.5 h post-dose
measured.property: concentration at 10.5 h (ng/mL)
Express your answer in ng/mL, writing the number without its unit.

Req: Recorded concentration at 10.5 h of NC(=O)N1CCC[C@@H](N(C(=O)NCc2ccc(OC(F)(F)F)cc2F)C2CC2)C1 , please.
Resp: 957

* * *

test: Plasma levels of Compound 1 over 72 h, suspension versus tablet, fasted or fed, in healthy volunteers; assay type: in vivo; conditions: human, oral, 100 mg, 100 mg tablet, fed, 6 h post-dose, read-out: Plasma level, Mean
measured.property: concentration at 6 h
Record the result as number plus unit.

Req: Recorded concentration at 6 h of NC(=O)N1CCC[C@@H](N(C(=O)NCc2ccc(OC(F)(F)F)cc2F)C2CC2)C1 , please.
Resp: 2260 ng/mL

* * *

Test: Plasma levels of Compound 1 over 72 h, suspension versus tablet, fasted or fed, in healthy volunteers
Format: in vivo
Details: human, oral, 100 mg, 100 mg tablet, fed, 1 h post-dose, read-out: Plasma level, Mean
Description: FIG. 4 is a graph of the pharmacokinetics of Compound 1 over 72 hours in healthy volunteers in fed or fasted states when administering 100 mg of the compound as a suspension formulation or a tablet. A suspension formulation (100 mg, fasted) and tablet formulation (100 mg, fasted or fed) of Compound 1 was administered to healthy volunteers. Plasma levels of Compound 1 over 72 was measured (FIG. 4). Post-dose plasma levels are recited in Table 16.
measured.property: concentration at 1 h (ng/mL)
Express your answer in ng/mL, writing the number without its unit.

Req: Recorded concentration at 1 h of NC(=O)N1CCC[C@@H](N(C(=O)NCc2ccc(OC(F)(F)F)cc2F)C2CC2)C1 [Cpd 1] , please.
Resp: 2220

* * *

test: Plasma levels of Compound 1 over 72 h, suspension versus tablet, fasted or fed, in healthy volunteers; assay type: in vivo; settings: human, oral, 100 mg, 100 mg tablet, fasted, 1.5 h post-dose, read-out: Plasma level, Mean
measured.property: concentration at 1.5 h (µg/mL)
Express your answer in µg/mL, writing the number without its unit.

Req: Recorded concentration at 1.5 h of NC(=O)N1CCC[C@@H](N(C(=O)NCc2ccc(OC(F)(F)F)cc2F)C2CC2)C1 , please.
Resp: 2.4

* * *

experiment: Plasma levels of Compound 1 over 72 h, suspension versus tablet, fasted or fed, in healthy volunteers; format: in vivo; conditions: human, oral, 100 mg, 100 mg tablet, fasted, 6 h post-dose, read-out: Plasma level, Mean
measured.property: concentration at 6 h (ng/mL)
Express your answer in ng/mL, writing the number without its unit.

Req: Recorded concentration at 6 h of NC(=O)N1CCC[C@@H](N(C(=O)NCc2ccc(OC(F)(F)F)cc2F)C2CC2)C1 [Cpd 1] , please.
Resp: 2070

* * *

test: Plasma levels of Compound 1 over 24 hours after 14 days of suspension administration in healthy volunteers; format: in vivo; conditions: human, oral, 150 mg QD suspension, 1.5 h post-dose
measured.property: concentration at 1.5 h (ng/mL)
Express your answer in ng/mL, writing the number without its unit.

Req: Recorded concentration at 1.5 h of NC(=O)N1CCC[C@@H](N(C(=O)NCc2ccc(OC(F)(F)F)cc2F)C2CC2)C1 , please.
Resp: 4360

* * *

experiment: Plasma levels of Compound 1 over 72 h, suspension versus tablet, fasted or fed, in healthy volunteers; format: in vivo; settings: human, oral, 100 mg, 100 mg suspension, fasted, 4 h post-dose, read-out: Plasma level, Mean
measured.property: concentration at 4 h (ng/mL)
Express your answer in ng/mL, writing the number without its unit.

Req: Recorded concentration at 4 h of NC(=O)N1CCC[C@@H](N(C(=O)NCc2ccc(OC(F)(F)F)cc2F)C2CC2)C1 , please.
Resp: 2750
